# METHOD SUMMARY: chemical genetic growth profiling, strain panel (AID 1159580);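 note: tested at 20 µM; growth read once vehicle control cultures reached saturation at 30 °C; 1 = growth at the plate median or of vehicle wells; lower values mean less growth of the strain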
# EXPERIMENTAL SETUP: S. cerevisiae deletion strains, growth OD, locus YGL248W, strain PDE1, stronger effect = lower value
In all, about 5,500 compounds went through this assay and about 2,000 (36%) were called active. Roughly 18% stayed inconclusive and do not appear here. The list shows a part of the results.
Recorded measurements of normalized growth, one per entry
METRIC: normalized growth

COMPOUND | OBSERVED MEASUREMENT
CC(=O)OCC(=O)[C@@]12OC3(CCCC3)O[C@@H]1CC1C3CCC4=CC(=O)C=C[C@]4(C)[C@@]3(F)[C@@H](O)C[C@@]12C (stereo partly specified) | 1.01 (inactive)
CO[C@H]1C[C@H](O[C@H]2[C@H](C)[C@@H](OC3O[C@H](C)C[C@H](N(C)C)[C@H]3OC(C)=O)[C@@H](C)C[C@]3(CO3)C(=O)[C@H](C)[C@@H](OC(C)=O)[C@@H](C)[C@@H](C)OC(=O)[C@@H]2C)O[C@@H](C)[C@@H]1OC(C)=O (stereo partly specified) | 1.01 (inactive)
Cc1c(NC(=O)c2cccnc2)c(=O)n(-c2ccccc2)n1C | 0.974 (inactive)
CC(NCCC(c1ccccc1)c1ccccc1)c1ccccc1 (stereo unspecified) | 0.979 (inactive)
CC1=CC(=O)C2=C(C)CC(O)C3C(C)C(=O)OC3C12 (stereo unspecified) | 0.997 (inactive)
CC(=O)CC1CCCCN1 (stereo unspecified) | 1.02 (inactive)
